assayedTarget: RARα (Homo sapiens (Human))
Sequence (P10276 whole entry, species assumed): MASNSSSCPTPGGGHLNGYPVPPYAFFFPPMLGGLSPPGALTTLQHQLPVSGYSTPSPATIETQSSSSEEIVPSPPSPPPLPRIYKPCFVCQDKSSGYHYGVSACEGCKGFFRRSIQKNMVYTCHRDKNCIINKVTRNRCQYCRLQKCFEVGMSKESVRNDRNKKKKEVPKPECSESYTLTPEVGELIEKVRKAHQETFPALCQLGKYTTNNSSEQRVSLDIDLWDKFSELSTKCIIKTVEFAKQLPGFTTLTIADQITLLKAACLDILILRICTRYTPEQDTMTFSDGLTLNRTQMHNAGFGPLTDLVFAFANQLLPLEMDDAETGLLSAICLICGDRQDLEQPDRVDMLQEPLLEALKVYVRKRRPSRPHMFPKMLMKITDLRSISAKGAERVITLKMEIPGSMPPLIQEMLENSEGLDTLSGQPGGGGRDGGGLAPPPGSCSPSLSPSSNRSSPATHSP
assayComment: Subtype-specific transactivation from Yoshimura et al., 2000, RARα
Type: cell-based
testContext: ratio of relative EC30 (transactivation), Table 6
endpoint: RARα/RARβ ratio

Cc1ccc(C)c2oc(-c3ccc(-c4ccc(C(=O)O)cc4)[nH]3)cc12 0.148

A: Cc1ccc(C)c2sc(-c3ccc(-c4ccc(C(=O)O)cc4)[nH]3)cc12
B: O=C(O)c1ccc(-c2ccc(-c3cc4c(C(F)(F)F)ccc(F)c4o3)[nH]2)cc1
C: O=C(O)c1ccc(-c2ccc(-c3cc4c(F)ccc(F)c4o3)[nH]2)cc1
D: O=C(O)c1ccc(-c2ccc(-c3cc4c(Cl)ccc(Cl)c4o3)[nH]2)cc1
In: Task for the reader: rank each entry by its RARα/RARβ ratio, from the minimum upward. Submit the labels in the order that the ranking request calls for.
Out: C, D, A, B
(C: 0.0038, D: 0.006, A: 0.010, B: 0.034)

====

assayedTarget: UniProtKB P22605
assayComment: Transactivation assay, mouse RARβ
Type: cell-based
testContext: Table 3, read-out: RARβ potency - EC50
pEC50: −log10 of the molar value.
endpoint: pEC50

A: Cc1ccc(C)c2oc(-c3nc(-c4ccc(C(=O)O)cc4Cl)no3)cc12 [BHBA-002]
B: Cc1ccc(C)c2oc(-c3nc(-c4ccc(C(=O)O)cc4)no3)cc12 [BHBA-001]
In: Smaller pEC50 value? Options are A and B API: response body contains the label of the selected item.
Out: A
(A: 7.94, B: 8.71)

====

assayedTarget: RARγ (Homo sapiens (Human))
Sequence (P13631 whole entry, species assumed): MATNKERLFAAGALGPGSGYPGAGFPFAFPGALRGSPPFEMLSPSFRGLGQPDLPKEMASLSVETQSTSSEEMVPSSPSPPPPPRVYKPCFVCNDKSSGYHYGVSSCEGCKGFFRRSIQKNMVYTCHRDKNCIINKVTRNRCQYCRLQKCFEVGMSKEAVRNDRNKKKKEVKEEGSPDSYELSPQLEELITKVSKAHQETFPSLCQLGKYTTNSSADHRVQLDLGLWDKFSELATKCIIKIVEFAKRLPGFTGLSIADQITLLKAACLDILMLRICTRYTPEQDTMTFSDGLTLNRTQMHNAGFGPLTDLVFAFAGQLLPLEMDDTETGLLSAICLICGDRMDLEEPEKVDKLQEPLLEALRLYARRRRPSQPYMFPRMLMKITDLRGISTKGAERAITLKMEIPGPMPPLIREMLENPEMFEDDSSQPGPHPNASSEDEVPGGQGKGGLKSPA
assayComment: Subtype-specific transactivation from Yoshimura et al., 2000, RARγ
Type: cell-based
testContext: ratio of relative EC30 (transactivation), Table 6
endpoint: RARγ/RARβ ratio

O=C(O)c1ccc(-c2ccc(-c3cc4c(F)ccc(F)c4o3)[nH]2)cc1 8.33
Cc1ccc(C)c2sc(-c3ccc(-c4ccc(C(=O)O)cc4)[nH]3)cc12 6.46
Cc1ccc(C)c2oc(-c3ccc(-c4ccc(C(=O)O)cc4)[nH]3)cc12 9.60

I: O=C(O)c1ccc(-c2ccc(-c3cc4c(C(F)(F)F)ccc(F)c4o3)[nH]2)cc1
II: O=C(O)c1ccc(-c2ccc(-c3cc4c(Cl)ccc(Cl)c4o3)[nH]2)cc1
In: Smaller RARγ/RARβ ratio value? Options are I and II API: response body contains the label of the selected item.
Out: II
(II: 7.45, I: 12.9)

====

assayedTarget: UniProt:P22605
assayComment: Transactivation assay for RARβ (gal4-RAR fusion, pFR-luc reporter, COS-7 cells), Table 2
Assay type: cell-based
testContext: COS-7 reporter, mean of three or more determinations, species not stated (method: mouse or human)
pEC50: −log10 of the molar value.
endpoint: pEC50

As a guide, the following entries are already answered.
Cc1ccc(C)c2oc(-c3nc(-c4ccc(C(=O)O)cc4Cl)no3)cc12 7.94
Cc1ccc(C)c2sc(-c3nc(-c4ccc(C(=O)O)cc4)no3)nc12 8.05
Cc1ccc(C)c2oc(-c3nnc(-c4ccc(C(=O)O)cc4)o3)cc12 7.70
Cc1cc(C(=O)O)ccc1-c1nc(-c2cc3c(C)ccc(C)c3o2)no1 7.85
Cc1cc(-c2nc(-c3cc4c(C)ccc(C)c4o3)no2)ccc1C(=O)O 8.09
Cc1ccc(C)c2oc(-c3nc(-c4ccc(C(=O)O)cc4Cl)ns3)cc12 8.44

A: Cc1ccc(C)c2oc(-c3noc(-c4ccc(C(=O)O)cc4F)n3)cc12
B: Cc1c(Cl)cc(C)c2oc(-c3nc(-c4ccc(C(=O)O)cc4)no3)cc12
C: Cc1ccc(C)c2oc(-c3nc(-c4ccc(C(=O)O)cc4Cl)no3)nc12
In: Task for the reader: rank each entry by its pEC50, from the minimum upward. Submit the labels in the order that the ranking request calls for.
Out: C, A, B

====

assayedTarget: RARβ (Mus musculus (Mouse), UniProt P22605)
Sequence (P22605 210-444): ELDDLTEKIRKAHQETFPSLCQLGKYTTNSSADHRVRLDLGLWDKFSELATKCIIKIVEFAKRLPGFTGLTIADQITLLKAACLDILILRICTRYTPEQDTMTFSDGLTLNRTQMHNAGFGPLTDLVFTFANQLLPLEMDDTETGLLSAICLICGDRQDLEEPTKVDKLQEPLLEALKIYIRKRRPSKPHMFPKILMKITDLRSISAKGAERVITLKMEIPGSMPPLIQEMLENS
assayComment: Transactivation assay for RARβ (gal4-RAR fusion, pFR-luc reporter, COS-7 cells), Table 2
Assay type: cell-based
testContext: COS-7 reporter, mean of three or more determinations, species not stated (method: mouse or human)
endpoint: EC50 (nM)

compound	endpoint	testValue
Cc1ccc(Cl)c2oc(-c3nc(-c4ccc(C(=O)O)cc4)no3)cc12 [BHBA-015]	EC50	2.9
Cc1ccc(C)c2oc(-c3nc(-c4ccc(C(=O)O)cc4C(F)(F)F)no3)cc12 [BHBA-004]	EC50	10
Cc1ccc(C)c2oc(-c3nc(-c4ccc(C(=O)O)c(F)c4)no3)nc12 [BHBA-026]	EC50	13

A: Cc1ccc(C)c2sc(-c3nc(-c4ccc(C(=O)O)cc4)no3)cc12 [BHBA-021]
B: Cc1cc(C(=O)O)ccc1-c1nnc(-c2cc3c(C)ccc(C)c3o2)o1 [BHBA-035]
In: Smaller EC50 value? Options are A and B API: response body contains the label of the selected item.
Out: A

I: Cc1cc(-c2noc(-c3nc4c(C)ccc(C)c4o3)n2)ccc1C(=O)O [BHBA-025]
II: Cc1ccc(Cl)c2oc(-c3nc(-c4ccc(C(=O)O)cc4Cl)no3)cc12 [BHBA-017]
In: Smaller EC50 value? Options are I and II API: response body contains the label of the selected item.
Out: II

P: Cc1ccc(Cl)c2cc(-c3nc(-c4ccc(C(=O)O)cc4Cl)no3)oc12 [BHBA-018]
Q: O=C(O)c1ccc(-c2noc(-c3cc4c(Cl)ccc(Cl)c4o3)n2)c(Cl)c1 [BHBA-012]
In: Which has the higher EC50, P or Q ? API: response body contains the label of the selected item.
Out: P

====

assayedTarget: RARα (Mus musculus (Mouse), UniProt P11416)
Sequence (P11416 183-417): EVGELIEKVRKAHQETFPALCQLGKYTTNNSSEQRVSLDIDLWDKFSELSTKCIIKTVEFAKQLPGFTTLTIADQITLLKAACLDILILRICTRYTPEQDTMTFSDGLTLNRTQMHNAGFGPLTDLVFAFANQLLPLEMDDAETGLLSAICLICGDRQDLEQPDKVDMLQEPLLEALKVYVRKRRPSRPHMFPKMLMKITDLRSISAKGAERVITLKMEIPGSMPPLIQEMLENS
assayComment: Transactivation assay for RARα (gal4-RAR fusion, pFR-luc reporter, COS-7 cells), Table 2
Format: cell-based
testContext: fold-selectivity for RARβ over RARα; >1 = selective for RARβ
endpoint: RARα/RARβ ratio

As a guide, the following entries are already answered.
O=C(O)c1ccc(-c2noc(-c3cc4c(C(F)(F)F)ccc(F)c4o3)n2)cc1 7.6
Cc1ccc(C)c2sc(-c3nc(-c4ccc(C(=O)O)cc4Cl)no3)cc12 5
Cc1ccc(C(C)C)c2cc(-c3nc(-c4ccc(C(=O)O)cc4)no3)oc12 8
Cc1cc(-c2nc(-c3cc4c(C)ccc(C)c4o3)no2)ccc1C(=O)O 18.5
Cc1cc(-c2noc(-c3cc4c(C)ccc(C)c4o3)n2)ccc1C(=O)O 6

1: Cc1ccc(C)c2oc(-c3nc(-c4ccc(C(=O)O)cc4Br)no3)cc12
2: Cc1ccc(C)c2oc(-c3nsc(-c4ccc(C(=O)O)cc4)n3)cc12
In: Which has the higher RARα/RARβ ratio, 1 or 2 ? API: response body contains the label of the selected item.
Out: 1

====

assayedTarget: RARα (Mus musculus (Mouse), UniProt P11416)
assayComment: Transactivation assay for RARα (gal4-RAR fusion, pFR-luc reporter, COS-7 cells), Table 2
testContext: Table 2; COS-7 reporter; mean of three or more determinations; inactive = no agonist action at highest concentration tested
endpoint: EC50 (nM)

As a guide, the following entries are already answered.
Cc1ccc(C)c2oc(-c3nc(-c4ccc(C(=O)O)cc4Cl)no3)nc12 180
Cc1cc(-c2noc(-c3nc4c(C)ccc(C)c4o3)n2)ccc1C(=O)O 150

a: Cc1ccc(Cl)c2oc(-c3nc(-c4ccc(C(=O)O)cc4Cl)no3)cc12
b: Cc1ccc(C)c2oc(-c3nc(-c4ccc(C(=O)O)c(F)c4)no3)cc12
In: Which has the higher EC50, a or b ? API: response body contains the label of the selected item.
Out: a

====

assayedTarget: RARγ (Mus musculus (Mouse), UniProt P18911)
Sequence (P18911 185-419): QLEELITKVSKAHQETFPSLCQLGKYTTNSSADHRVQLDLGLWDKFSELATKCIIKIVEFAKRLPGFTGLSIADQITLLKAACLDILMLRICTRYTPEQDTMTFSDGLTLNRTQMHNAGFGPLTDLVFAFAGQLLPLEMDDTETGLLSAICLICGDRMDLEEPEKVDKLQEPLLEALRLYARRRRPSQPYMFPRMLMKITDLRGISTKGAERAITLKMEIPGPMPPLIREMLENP
assayComment: Transactivation assay for RARγ (gal4-RAR fusion, pFR-luc reporter, COS-7 cells), Table 2
testContext: Table 2; COS-7 reporter; mean of three or more determinations; inactive = no agonist action at highest concentration tested
pEC50: −log10 of the molar value.
endpoint: pEC50

As a guide, the following entries are already answered.
Cc1ccc(C)c2oc(-c3noc(-c4ccc(C(=O)O)cc4Cl)n3)cc12 7.38
Cc1ccc(C)c2sc(-c3nc(-c4ccc(C(=O)O)cc4)no3)nc12 7.60

a: O=C(O)c1ccc(-c2noc(-c3cc4c(Cl)ccc(Cl)c4o3)n2)cc1F
b: Cc1ccc(C)c2oc(-c3nc(-c4ccc(C(=O)O)c(F)c4)ns3)cc12
In: Which has the higher pEC50, a or b ? API: response body contains the label of the selected item.
Out: b
(b: 8.33, a: 7.96)

====

assayedTarget: UniProt:P22605
assayComment: Transactivation assay for RARβ (gal4-RAR fusion, pFR-luc reporter, COS-7 cells), Table 2
Format: cell-based
testContext: COS-7 reporter, mean of three or more determinations, species not stated (method: mouse or human)
endpoint: EC50 (nM)

As a guide, the following entries are already answered.
Cc1ccc(C)c2oc(-c3noc(-c4ccc(C(=O)O)c(F)c4)n3)cc12 13
Cc1ccc(C)c2oc(-c3nc(-c4ccc(C(=O)O)cc4Br)no3)cc12 16
Cc1ccc(C)c2sc(-c3nc(-c4ccc(C(=O)O)cc4Cl)no3)cc12 16
Cc1cc(-c2noc(-c3cc4c(Cl)ccc(Cl)c4o3)n2)ccc1C(=O)O 16
Cc1cc(-c2nsc(-c3cc4c(C)ccc(C)c4o3)n2)ccc1C(=O)O 11

I: Cc1ccc(C)c2oc(-c3nc(-c4ccc(C(=O)O)c(F)c4)no3)cc12
II: Cc1ccc(C)c2oc(-c3nc(-c4ccc(C(=O)O)cc4)ns3)cc12
III: O=C(O)c1ccc(-c2noc(-c3cc4c(C(F)(F)F)ccc(F)c4o3)n2)c(Cl)c1
In: Task for the reader: rank each entry by its EC50, from the minimum upward. Submit the labels in the order that the ranking request calls for.
Out: I, II, III
(I: 2.2 nM, II: 5.1 nM, III: 8 nM)
